Reported fold induction at 10 µM by item:
Biological target: SFRP-1 (Homo sapiens, UniProt Q8N474)
Sequence (Q8N474 32-314): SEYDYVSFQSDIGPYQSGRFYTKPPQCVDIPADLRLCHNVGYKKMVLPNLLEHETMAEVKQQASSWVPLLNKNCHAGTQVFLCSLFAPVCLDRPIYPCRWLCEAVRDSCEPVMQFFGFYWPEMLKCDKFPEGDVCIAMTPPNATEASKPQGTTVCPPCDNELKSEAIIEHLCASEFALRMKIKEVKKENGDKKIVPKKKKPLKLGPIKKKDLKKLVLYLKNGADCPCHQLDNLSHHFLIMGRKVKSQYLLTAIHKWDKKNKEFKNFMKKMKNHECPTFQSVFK
Assay: Cell-based assay for in vitro measurement of SFRP-1/SARP2 antagonist activity (U2OS cells co-transfected with 16x TCF-tk-Luciferase reporter, Wnt and hSFRP-1)
Conditions: U2OS, read-out: Fold Induction with SFRP-1, U2OS cells, single dose 10 μM, luciferase reporter, fold induction over SFRP-1 control
API note: the answer field is a bare number with no unit suffix.

Field: example entries. Status: answers known.
molecule="COC(=O)[C@H]1CC[C@H](CNS(=O)(=O)c2cc(S(=O)(=O)c3ccccc3)ccc2C(C)C)CC1 [Example 934]" measure_name="fold induction at 10 µM" measurement=2.3
molecule="COc1cccc(S(=O)(=O)c2ccc(C(F)(F)F)c(S(=O)(=O)NCCc3cccnc3)c2)c1 [Example 747]" measure_name="fold induction at 10 µM" measurement=5.7
molecule="COc1cccc(S(=O)(=O)c2ccc(C(F)(F)F)c(S(=O)(=O)NC3CCN(C(=O)c4ccc(C(C)(C)C)cc4)CC3)c2)c1 [Example 746]" measure_name="fold induction at 10 µM" measurement=5
molecule="O=S(=O)(NC1CCN(Cc2ccc(C(F)(F)F)cc2)CC1)c1cc(S(=O)(=O)c2ccccc2)ccc1C(F)(F)F [Example 749]" measure_name="fold induction at 10 µM" measurement=1.7
molecule="CCc1ccc(S(=O)(=O)c2ccccc2)cc1S(=O)(=O)NC1CCN(C(=O)OC(C)(C)C)CC1 [Example 909]" measure_name="fold induction at 10 µM" measurement=2.3

Output fold induction at 10 µM of C[C@@H](NS(=O)(=O)c1cc(S(=O)(=O)c2ccccc2)ccc1C(F)(F)F)[C@@H](O)c1ccccc1 [Example 686]
3.5

Output fold induction at 10 µM of CCOc1ccc2ccccc2c1C(=O)N1CCC(NS(=O)(=O)c2cc(S(=O)(=O)c3ccccc3)ccc2C(C)C)CC1 [Example 813]
3.9

====

molecular target: SFRP-1 (Homo sapiens, UniProt Q8N474); test: Cell-based assay for in vitro measurement of SFRP-1/SARP2 antagonist activity (U2OS cells co-transfected with 16x TCF-tk-Luciferase reporter, Wnt and hSFRP-1);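 also: U2OS cells co-transfected with a TCF-tk luciferase reporter, a Wnt vector, hSFRP-1 or empty vector and CMV-βgal, luciferase luminescence read in cell lysates alongside βgal activity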
Flag rule - EC50 less than 1000 nM flags Yes; the remaining entries get No.

compound=O=C(O)c1cccc(S(=O)(=O)N2CCC(CNS(=O)(=O)c3cc(S(=O)(=O)c4ccccc4)ccc3C(F)(F)F)CC2)c1 assayed_system="SFRP-1 (Homo sapiens, UniProt Q8N474)" assigned_class=Yes

Identify whether the compound `O=C(O)c1ccc(-c2cccc(CNS(=O)(=O)c3cc(S(=O)(=O)c4ccccc4)ccc3C(F)(F)F)c2)cc1` records EC50 below 1000 nM.
No

Identify whether the compound `CC(C)c1ccc(S(=O)(=O)c2ccccc2)cc1S(=O)(=O)NC[C@H]1CC[C@H](C(=O)O)CC1` records EC50 below 1000 nM.
No

Identify whether the compound `CC(C)(C)OC(=O)N1CCC(NS(=O)(=O)c2cc(S(=O)(=O)c3ccc(F)cc3)ccc2C(F)(F)F)CC1` records EC50 below 1000 nM.
No

Identify whether the compound `O=C(c1ccccc1)c1cccc(C(=O)N2CCC(NS(=O)(=O)c3cc(S(=O)(=O)c4ccccc4)ccc3C(F)(F)F)CC2)c1` records EC50 below 1000 nM.
No

Identify whether the compound `O=C(O)CCCC(=O)N1CCC(CNS(=O)(=O)c2cc(S(=O)(=O)c3ccccc3)ccc2C(F)(F)F)CC1` records EC50 below 1000 nM.
Yes

Identify whether the compound O=S(=O)(NC1c2ccccc2CC1O)c1cc(S(=O)(=O)c2ccccc2)ccc1C(F)(F)F (stereo not drawn) records EC50 below 1000 nM.
No

Identify whether the compound `O=C(O)[C@H]1CC[C@H](CNS(=O)(=O)c2cc(S(=O)(=O)c3ccccc3)ccc2C(F)(F)F)CC1` records EC50 below 1000 nM.
Yes

Identify whether the compound `COC(=O)CN1CCC(NS(=O)(=O)c2cc(S(=O)(=O)c3ccccc3)ccc2C(F)(F)F)CC1` records EC50 below 1000 nM.
Yes

Identify whether the compound `O=C(c1c(F)cc(F)cc1F)N1CCC(NS(=O)(=O)c2cc(S(=O)(=O)c3ccccc3)ccc2C(F)(F)F)CC1` records EC50 below 1000 nM.
No

Identify whether the compound `O=C(c1ccccc1OC(F)(F)F)N1CCC(NS(=O)(=O)c2cc(S(=O)(=O)c3ccccc3)ccc2C(F)(F)F)CC1` records EC50 below 1000 nM.
Yes

Identify whether the compound `CC(C)c1ccc(S(=O)(=O)c2ccccc2)cc1S(=O)(=O)NCCc1ccccn1` records EC50 below 1000 nM.
No

Identify whether the compound `O=C(c1ccnc(N2CCCC2)c1)N1CCC(NS(=O)(=O)c2cc(S(=O)(=O)c3ccccc3)ccc2C(F)(F)F)CC1` records EC50 below 1000 nM.
Yes

Identify whether the compound `CCCc1ccc(S(=O)(=O)c2ccccc2)cc1S(=O)(=O)NCCc1cccnc1` records EC50 below 1000 nM.
No
